Tested on: FAB9
Assay: qHTS profiling for inhibitors of Plasmodium falciparum proliferation (AID 504749); also: nearly all actives have a fitted effect of over 60% in size
Conditions: P. falciparum in erythrocytes, SYBR Green DNA, 72 h; series mostly up to 28.7 µM
Inconclusive results are not listed. Calls of active or inactive are those of the source. Calls follow the shape of the dose curve; as a rule, active = well fitted inhibition curve with a large enough effect; inconclusive = small, poorly fitted or top-dose-only effect; inactive = flat fitted curve, though single readings scatter.
readout type: outcome

COc1ccc(C(=O)c2ccc(C)cc2)c(O)c1    inactive
FC(F)(F)C(F)(F)C(F)(F)C(F)(F)C(F)(F)C(F)(F)F    inactive
FC(F)OC(Cl)C(F)(F)F (stereo unspecified)    inactive
O=S(=O)(O)CC(S)CS (stereo unspecified)    inactive
CCCCO    inactive
NC(N)=O    inactive
CN(C)C=Nc1c(I)cc(I)c(CCC(=O)O)c1I    inactive
Oc1cc(O)cc(O)c1    inactive
CS(=O)(=O)c1ccc([C@@H](O)[C@@H](COC(=O)CN)NC(=O)C(Cl)Cl)cc1    inactive
O=C(NNCNNC(=O)c1ccncc1)c1ccncc1    inactive
CO/N=C(/C(=O)N[C@@H]1C(=O)N2C(C(=O)O)=C(COC(N)=O)CS[C@H]12)c1ccco1    inactive
CS(=O)(=O)OCC(O)C(O)COS(C)(=O)=O (stereo unspecified)    inactive
CC1(C)S[C@@H]2[C@H](NC(=O)C3(N)CCCCC3)C(=O)N2[C@H]1C(=O)O    inactive
CC(/C=C/C=C(\C)C(=O)O[C@@H]1O[C@H](CO[C@@H]2O[C@H](CO)[C@@H](O)[C@H](O)[C@H]2O)[C@@H](O)[C@H](O)[C@H]1O)=C\C=C\C=C(C)\C=C\C=C(/C)C(=O)O[C@@H]1O[C@H](CO[C@@H]2O[C@H](CO)[C@@H](O)[C@H](O)[C@H]2O)[C@@H](O)[C@H](O)[C@H]1O    inactive
CCCC(CCC)C(=O)OC1C[C@H]2CC[C@@H](C1)[N+]2(C)C (stereo partly specified)    inactive
O=C1c2ccccc2C(=O)C1c1ccc(F)cc1    inactive
CN(C)C(=O)CCSC(SCCC(=O)O)c1cccc(/C=C/c2ccc3ccc(Cl)cc3n2)c1 (stereo unspecified)    inactive
COc1cc2c(cc1OC)[C@@H](Cc1cc(OC)c(OC)c(OC)c1)[N+](C)(CCCOC(=O)CC/C=C/CCC(=O)OCCC[N+]1(C)CCc3cc(OC)c(OC)cc3[C@H]1Cc1cc(OC)c(OC)c(OC)c1)CC2 (stereo partly specified)    inactive
CC(=O)[O][Al][O]C(C)=O    inactive
O=C(O)c1cc(N=Nc2ccc(O)c(C(=O)O)c2)ccc1O    inactive
C(=C\c1ccncc1)/c1ccccc1    inactive

---

Tested on: P93_24
Assay: qHTS profiling for inhibitors of Plasmodium falciparum proliferation (AID 504749); also: nearly all actives have a fitted effect of over 60% in size
Conditions: P. falciparum in erythrocytes, SYBR Green DNA, 72 h; series mostly up to 28.7 µM
Protocol: NIH National Institute of Allergy and Infectious Diseases [NIAID] NIH Chemical Genomics Center [NCGC] […] Because mature erythrocytes lack DNA, only Plasmodium-derived DNA is detected. NCGC Assay Protocol Summary: The SYBR Green viability assay was adapted from a method described previously (Plouffe et al., 2008). […] The following morning, fluorescence intensity at 485(14) nm excitation and 535(25) nm emission wavelengths was measured on an EnVision (Perkin Elmer) plate reader. […]
Records with an inconclusive call do not appear. Calls of active or inactive are those of the source. Calls follow the shape of the dose curve; as a rule, active = well fitted inhibition curve with a large enough effect; inconclusive = small, poorly fitted or top-dose-only effect; inactive = flat fitted curve, though single readings scatter.
Possible outcomes: active, inactive

C=CC(=O)O    inactive
CC1C(=O)CC2C3(C)CCC2(C(C)C(=O)O)C(=O)C13 (centres undefined)    inactive
COc1cc2c(cc1OC)[C@@H](Cc1cc(OC)c(OC)c(OC)c1)[N+](C)(CCCOC(=O)CC/C=C/CCC(=O)OCCC[N+]1(C)CCc3cc(OC)c(OC)cc3[C@H]1Cc1cc(OC)c(OC)c(OC)c1)CC2 (some centres undefined)    inactive
CC1=CC(=C(c2ccc(N)cc2)c2ccc(N)cc2)C=CC1=N    active
Cn1cc(NC(=O)c2cc(NC(=O)c3cc(NC=O)cn3C)cn2C)cc1C(=O)NCCC(=N)N    active
COC(=O)c1ccccc1O    inactive
[O]=[Bi][O][Bi]=[O]    inactive
C[C@@](Cc1ccc(O)c(O)c1)(NN)C(=O)O    inactive
Cc1cc(=O)c(C(=O)N[C@@H](C(=O)N[C@@H]2C(=O)N3C(C(=O)O)=C(CSc4nnnn4C)CS[C@H]23)c2ccc(O)cc2)c[nH]1    inactive
COc1ccc(/C=C/C(=O)O)cc1    inactive
CCOc1ccc(S(=O)(=O)O)c2cccnc12    inactive
O=[n+]1ccn([O-])c2ccccc21    inactive
OCCOCCOCCO    inactive
CC1=CCC2CC1C2(C)C (centres undefined)    inactive
[O-][N+](=Nc1ccccc1)c1ccccc1    inactive
NCCN    inactive
O=P(O)(O)OP(=O)(O)O    inactive
c1ccc2ccccc2c1    inactive
Cc1nc(NS(=O)(=O)c2ccc(N)cc2)nc(C)c1Br    inactive
OCC1(CO)COC(C(Cl)(Cl)Cl)OC1    inactive
Cc1cc(-c2ccc(N=Nc3ccc4c(S(=O)(=O)O)cc(S(=O)(=O)O)c(N)c4c3O)c(C)c2)ccc1N=Nc1ccc2c(S(=O)(=O)O)cc(S(=O)(=O)O)c(N)c2c1O    inactive
CC(C)CCC[C@@H](C)[C@H]1CC[C@H]2[C@@H]3CC[C@@H]4C[C@H](O)CC[C@]4(C)[C@H]3CC[C@]12C    inactive
C=CCCCCCCCCC(=O)OC    inactive
CCN(CC)CCOc1ccc2nc(N(C)C)sc2c1    inactive
